Source listed as patent US8883963B2.

Parameter: half-life at 2 μM. Scope: all listed entries.
Biological target: DPP IV (Homo sapiens)
Sequence (P27487 whole entry, species assumed): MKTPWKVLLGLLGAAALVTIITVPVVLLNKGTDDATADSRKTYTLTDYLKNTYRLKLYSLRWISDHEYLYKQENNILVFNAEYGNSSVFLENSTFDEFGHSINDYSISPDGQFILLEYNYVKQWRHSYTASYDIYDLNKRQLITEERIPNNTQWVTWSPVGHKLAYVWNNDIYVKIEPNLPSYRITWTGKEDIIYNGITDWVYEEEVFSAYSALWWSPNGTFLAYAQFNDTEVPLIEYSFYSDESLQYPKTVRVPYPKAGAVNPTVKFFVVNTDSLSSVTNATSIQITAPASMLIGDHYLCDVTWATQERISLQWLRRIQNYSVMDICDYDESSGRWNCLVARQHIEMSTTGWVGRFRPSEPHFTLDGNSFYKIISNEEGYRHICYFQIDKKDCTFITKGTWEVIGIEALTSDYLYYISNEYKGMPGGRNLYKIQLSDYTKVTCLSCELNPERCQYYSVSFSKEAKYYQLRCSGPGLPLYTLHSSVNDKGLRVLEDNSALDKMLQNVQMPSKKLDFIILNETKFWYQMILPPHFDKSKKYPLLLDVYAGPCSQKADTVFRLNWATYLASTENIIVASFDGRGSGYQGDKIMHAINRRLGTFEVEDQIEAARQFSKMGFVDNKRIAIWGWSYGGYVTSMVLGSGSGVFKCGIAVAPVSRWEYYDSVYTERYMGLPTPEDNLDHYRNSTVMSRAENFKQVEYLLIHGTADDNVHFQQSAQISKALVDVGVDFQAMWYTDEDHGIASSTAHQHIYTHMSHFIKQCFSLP
Assay: Stability against DPP IV enzyme
Type: in vitro ADME
Conditions: DPP IV enzyme, pH 7.8, 2 μM peptidomimetic, 37° C., read-out: half-life (t1/2) when incubated with DPP-IV enzyme
Non-standard residues stand in square brackets, D forms with d. Residues, ends and D or L forms follow the SMILES beside them. ξ: configuration not given here. *: point of attachment. X3 = CCc1cc(OC)ccc1-c1ccc(CC(N*)C(=S)NC(CCCc2ccccc2)C(N)=O)cc1; Leu(5,5,5,5',5',5'-F6) = N[C@@H](CC(C(F)(F)F)C(F)(F)F)C(=O)O; ξαMePhe(2-F) = CC(N)(Cc1ccccc1F)C(=O)O; aThr = C[C@H](O)[C@H](N)C(=O)O; Aib = CC(C)(N)C(=O)O

>  <COMPOUND>
CCc1cc(OC)ccc1-c1ccc(CC(NC(=O)[C@H](CC(=O)O)NC(=O)[C@H](CO)NC(=O)[C@@H](NC(=O)C(C)(Cc2ccccc2F)NC(=O)[C@@H](NC(=O)CNC(=O)[C@H](CC(C(F)(F)F)C(F)(F)F)NC(=O)C(C)(C)NC(=O)[C@@H](N)Cc2c[nH]cn2)[C@H](C)O)[C@H](C)O)C(=S)NC(CCCc2ccccc2)C(N)=O)cc1 (some centres unmarked) [compound 219] (H-H[Aib][Leu(5,5,5,5',5',5'-F6)]G[aThr][ξαMePhe(2-F)][aThr]SD-X3)

>  <half-life at 2 μM>
> 24 h

$$$$
>  <COMPOUND>
CCc1cc(OC)ccc1-c1ccc(CC(NC(=O)[C@H](CC(=O)O)NC(=O)[C@H](CO)NC(=O)[C@@H](NC(=O)C(C)(Cc2ccccc2F)NC(=O)[C@@H](NC(=O)CNC(=O)C(CCC#N)NC(=O)C(C)(C)NC(=O)[C@H](Cc2c[nH]cn2)NC(=O)OC)[C@@H](C)O)[C@@H](C)O)C(=O)NC(CCCc2ccccc2)C(N)=O)cc1 (single isomer, unassigned)

>  <half-life at 2 μM>
> 24 h

$$$$

----------
Test: Stability in human plasma
Type: in vitro ADME
Conditions: 2 μM peptidomimetic, pooled human plasma, 37° C.
MEASURED_ATTRIBUTE: half-life (t1/2) when incubated with human plasma

>  <MOLECULE>
CCc1cc(OC)ccc1-c1ccc(CC(NC(=O)[C@H](CC(=O)O)NC(=O)[C@H](CO)NC(=O)[C@@H](NC(=O)C(C)(Cc2ccccc2F)NC(=O)[C@@H](NC(=O)CNC(=O)[C@H](CC(C(F)(F)F)C(F)(F)F)NC(=O)C(C)(C)NC(=O)[C@@H](N)Cc2c[nH]cn2)[C@H](C)O)[C@@H](C)O)C(=O)NC(CCCc2ccccc2)C(N)=O)cc1 (some centres unmarked)

>  <ENDPOINT_VALUE>
(9) h

$$$$
>  <MOLECULE>
CCc1cc(OC)ccc1-c1ccc(CC(NC(=O)[C@H](CC(=O)O)NC(=O)[C@H](CO)NC(=O)[C@@H](NC(=O)C(C)(Cc2ccccc2F)NC(=O)[C@@H](NC(=O)CNC(=O)[C@H](CC(C(F)(F)F)C(F)(F)F)NC(=O)C(C)(C)NC(=O)[C@@H](N)Cc2c[nH]cn2)[C@@H](C)O)[C@@H](C)O)C(=O)NC(CCCc2ccccc2)C(N)=O)cc1 (some centres unmarked)

>  <ENDPOINT_VALUE>
(9) h

$$$$
